Source listed as paper PMC6271425.

Assay: Cell cytotoxicity determination (MTT assay)
Assay type: cell-based, murine
Settings: mouse, RAW 264.7 macrophage cells, RAW 264.7 cells, read-out: Cytotoxicity IC50 (µM) ± S.E.M
Items are presented alongside their recorded IC50.

1) O=C(/C=C(O)/C=C/c1ccc(O)cc1)c1ccccc1O [Compound 81] = 94.1 µM

Looking for the measured IC50 of COc1ccc(C(=O)/C=C(O)/C=C/c2ccc(OC)c(OC)c2)c(O)c1 [Compound 51] , can you help? > 100 µM

Look up IC50 for this compound: O=C(/C=C(O)/C=C/c1cccc(O)c1)c1ccccc1O [Compound 80] 85 µM

Any idea what its IC50 is? The compound is O=C(/C=C(O)/C=C/c1cccs1)c1ccc(O)cc1O [Compound 95] > 100 µM

Please report the recorded IC50 for COc1cccc(/C=C/C(O)=C/C(=O)c2ccccc2O)c1 [Compound 6] . > 100 µM

// query IC50 value for entry COc1ccc(O)c(C(=O)/C=C(O)/C=C/c2cccc(Cl)c2)c1 [Compound 59] > 100 µM

Need IC50 of COc1cccc(/C=C/C(O)=C/C(=O)c2cc(OC)ccc2O)c1 [Compound 62] , thanks. > 100 µM

Name the reported IC50 value associated with the compound COc1ccccc1/C=C/C(O)=C/C(=O)c1ccccc1O [Compound 5] > 100 µM

Item COc1cccc(/C=C/C(O)=C/C(=O)c2ccc(OC)cc2O)c1 [Compound 49] has what recorded IC50? > 100 µM
